Values from PubChem BioAssay (NCI)

# ASSAY_REMARKS: NCI Yeast Anticancer Drug Screen. Data for the sgs1 strain (AID 173)
# CONDITION_DESCRIPTION: S. cerevisiae sgs1 mutant, at 100.0 µM
# Description: Growth inhibition of yeast strains with defined genetic alterations is measured as a screen for potential anti-cancer activity. Selected strains with alterations in DNA damage repair or cell cycle control were exposed to compounds and growth inhibition was measured relative to vehicle treated controls. The strain used in this assay is sgs1
About 79,000 compounds went through this panel and 15% of them were active in at least one assay; those are over-represented in the sample as a whole. Active and inactive are the calls of the source. No stated cut-off is given here; in the data, active means growth inhibition above about 70%; inactive means the rest.
Outcomes: active, inactive

In [3]: df
Out[3]:
                                   compound  class_label
0       COc1ccc(N=C2C(=O)Nc3ccc(Br)cc32)cc1     inactive
1  COc1ccccc1/C=C1\Sc2scc(-c3cccc([N+](=O)[O-])c3)[n+]2C1=O       active
2  COC(=O)C1=C(C)NC(C)=C(C(=O)OCCCN2CCC(c3ccccc3)(c3ccccc3)CC2)C1c1cccc([N+](=O)[O-])c1 (stereo not given)       active
3    Cc1ccc(NN(NC(=O)OC(C)C)C(=O)OC(C)C)cc1     inactive
4          COC(=O)c1ccc([N+](=O)[O-])c(O)c1       active
5  CC(=O)OC1CCC2(C)C(=CCC3C4CCC5(OC6CC(C)CN(C(C)=O)C6C5C)C(C)=C4C(=O)C32)C1 (stereo not given)       active
6  COC(=O)CCNc1c2ccccc2nc2cccc([N+](=O)[O-])c12       active
7            CC(=O)SCCC[Si](C)(C)CCCSC(C)=O     inactive
8  Cc1c(C(=O)C(=O)c2ccccc2)c(C)c(C(=O)C(=O)c2ccccc2)c(C)c1C(=O)C(=O)c1ccccc1     inactive
9            CN(C)c1nc2sc3c(c2c(=O)o1)CCCC3     inactive
